- STUDY_TARGET: human cloned 5-HT2C receptor (Homo sapiens)
- Construct: expressed in transfected cells; host or cells: CHO cells
- Sequence (P28335 33-458): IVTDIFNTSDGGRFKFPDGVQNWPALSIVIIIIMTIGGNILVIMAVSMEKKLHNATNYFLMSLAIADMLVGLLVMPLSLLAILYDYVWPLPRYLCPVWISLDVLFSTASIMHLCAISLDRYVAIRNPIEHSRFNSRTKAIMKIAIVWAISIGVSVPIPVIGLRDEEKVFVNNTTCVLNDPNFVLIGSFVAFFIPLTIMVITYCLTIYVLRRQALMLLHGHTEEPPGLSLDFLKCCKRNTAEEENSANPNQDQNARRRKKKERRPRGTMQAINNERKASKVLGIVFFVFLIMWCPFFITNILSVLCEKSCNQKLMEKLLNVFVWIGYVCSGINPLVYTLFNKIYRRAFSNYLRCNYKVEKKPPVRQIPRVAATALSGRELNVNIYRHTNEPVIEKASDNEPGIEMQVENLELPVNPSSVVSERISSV
- EXPERIMENT_NOTES: In vitro binding affinity for 5-HT2C receptor (radioligand binding)
- CONDITION_SUMMARY: human cloned 5-HT2C receptor, radioligand binding; read-out: h-5HT2C (converted)
Overview of reported IC50 across a group of compounds:

[
  {
    "COMPOUND": "CNCC1CC2=C(O1)c1ccc(F)cc1Cc1ccccc12 (stereo not drawn)",
    "IC50": "2.51 nM"
  },
  {
    "COMPOUND": "COc1ccccc1NC(=O)CN(C)C[C@H]1CC2=C(O1)c1cc(F)ccc1Cc1ccccc12",
    "IC50": "25.1 nM"
  },
  {
    "COMPOUND": "COC(=O)CC(=O)N1CCN(CC2CC3=C(O2)c2cc(F)ccc2Cc2ccccc23)CC1 (stereo not drawn)",
    "IC50": "5.01 nM"
  }
]

Where do these numbers come from? They come from patent US8022102B2.
